B1: VH:VL chains; a variant is named by its letters at X, in order (parent)
chain 1: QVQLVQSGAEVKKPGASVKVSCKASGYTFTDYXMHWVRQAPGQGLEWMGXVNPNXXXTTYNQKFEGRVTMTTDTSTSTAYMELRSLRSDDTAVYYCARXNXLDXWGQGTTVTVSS
chain 2: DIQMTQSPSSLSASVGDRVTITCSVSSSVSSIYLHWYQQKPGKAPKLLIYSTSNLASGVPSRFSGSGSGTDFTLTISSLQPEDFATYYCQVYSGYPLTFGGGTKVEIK

- Variants of: B1
- Test protocol: yeast display scFab, FACS + sequencing
Experimental readout: non-specific binding call

STEASYLS | no binding
DAGGGDAV | no binding
VEARNAGA | no binding
DGGKNDVV | no binding
YTKETAAD | binds

Data point: YKGRGFAY ; non-specific binding call = binds

Data point: DGERTAGV ; non-specific binding call = no binding

Data point: ARRGSSLD ; non-specific binding call = no binding

Data point: DREEGDAV ; non-specific binding call = no binding

Data point: YRTRSAGD ; non-specific binding call = binds

Data point: VAATAAGA ; non-specific binding call = no binding
